Target: USP25 (USP25-His6, Boston Biochem E-546) (Homo sapiens, UniProt Q9UHP3)
Construct: His6 (C); purchased Boston Biochem E-546
Sequence (Q9UHP3 1-1055): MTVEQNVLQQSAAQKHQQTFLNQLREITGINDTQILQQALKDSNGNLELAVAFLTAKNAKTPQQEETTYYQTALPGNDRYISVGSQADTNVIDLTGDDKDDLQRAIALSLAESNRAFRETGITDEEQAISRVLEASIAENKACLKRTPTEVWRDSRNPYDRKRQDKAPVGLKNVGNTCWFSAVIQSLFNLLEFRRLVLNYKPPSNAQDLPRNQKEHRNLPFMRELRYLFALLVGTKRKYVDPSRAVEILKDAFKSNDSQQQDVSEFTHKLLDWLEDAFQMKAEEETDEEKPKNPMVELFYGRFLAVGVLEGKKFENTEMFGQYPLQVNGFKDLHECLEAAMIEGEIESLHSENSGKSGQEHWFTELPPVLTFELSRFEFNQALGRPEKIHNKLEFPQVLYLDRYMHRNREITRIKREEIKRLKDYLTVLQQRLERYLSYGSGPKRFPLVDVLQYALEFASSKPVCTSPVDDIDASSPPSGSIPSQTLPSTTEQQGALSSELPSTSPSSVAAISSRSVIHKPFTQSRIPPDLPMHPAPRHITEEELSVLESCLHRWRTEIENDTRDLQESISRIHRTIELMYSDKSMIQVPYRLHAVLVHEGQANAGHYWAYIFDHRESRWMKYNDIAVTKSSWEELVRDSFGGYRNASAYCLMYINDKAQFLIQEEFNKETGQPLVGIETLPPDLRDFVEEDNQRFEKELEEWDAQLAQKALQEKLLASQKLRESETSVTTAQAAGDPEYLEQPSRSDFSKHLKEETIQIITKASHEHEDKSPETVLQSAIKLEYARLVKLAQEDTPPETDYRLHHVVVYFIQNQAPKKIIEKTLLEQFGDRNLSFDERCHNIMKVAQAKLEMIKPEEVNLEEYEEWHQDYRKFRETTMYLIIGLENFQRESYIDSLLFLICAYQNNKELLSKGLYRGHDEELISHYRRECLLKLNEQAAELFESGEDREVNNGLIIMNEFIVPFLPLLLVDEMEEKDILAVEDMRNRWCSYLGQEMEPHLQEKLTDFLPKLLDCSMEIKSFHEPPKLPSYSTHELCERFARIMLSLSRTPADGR
Experiment: Ubiquitin-Rhodamine 110 Assay for USP25 Activity, Example A-3
Format: biochemical
Details: Ubiquitin-Rhodamine 110 assay, Example A-3; read-out: USP25 A-3 IC50 range
pIC50: −log10 of the molar value.
Endpoint: pIC50

>>> result("Cc1ccc2c(N)c(C(=O)N[C@H]3COc4cc(N5C[C@H](CF)[C@H](N)C5)ccc4C3)sc2n1 (single isomer, unassigned) [Example 424]")
"5.70 to 6.70"
>>> result("CCn1ccc2cc(C(=O)N[C@H]3CCc4nc(N5C[C@H](N)[C@@H](C(F)(F)F)C5)ccc4C3)cnc21 [Example 421]")
"5.70 to 6.70"
>>> result("CN[C@H]1CCN(c2ccc3c(c2)CC[C@@H](NC(=O)c2sc4nc(C)cnc4c2N)C3)C1 (single isomer, unassigned) [Example 11-26]")
"< 5.70"
>>> result("Cc1cnc2c(N)c(C(=O)N[C@@H]3CCc4c(C#N)c(N5CCNCC5)cc(F)c4C3)sc2n1 (single isomer, unassigned) [Example 14-11]")
"5.70 to 6.70"
>>> result("CCn1ccc2cc(C(=O)N[C@H]3CCc4nc(N5C[C@@H](N)C6(COC6)C5)ccc4C3)cnc21 [Example 404]")
"< 5.70"
>>> result("CCn1ccc2cc(C(=O)N[C@H]3CCc4nc(N5C[C@@H](N)[C@H](C(F)(F)F)C5)ccc4C3)cnc21 [Example 422]")
"< 5.70"
>>> result("Cc1ccc2c(N)c(C(=O)N[C@H]3COc4cc(N5C[C@H]6CC[C@@H]5CN6)ncc4C3)sc2n1 [Example 76]")
"6.70 to 7.30"
>>> result("Cc1nc2sc(C(=O)N[C@H]3CCc4c(C#N)c(N5CC6CCC(C5)N6)cc(F)c4C3)c(N)c2s1 (single isomer, unassigned) [Example 14-21]")
"6.70 to 7.30"
>>> result("Cc1ccc2c(N)c(C(=O)N[C@H]3CCc4nc(N5C[C@H]6COC[C@@]6(N)C5)ccc4C3)sc2n1 [Example 395]")
"5.70 to 6.70"
>>> result("Cc1ccc2c(N)c(C(=O)N[C@H]3COc4cc(N5CCNCC5)ccc4[C@@H]3C)sc2n1 (single isomer, unassigned) [Example 11-16]")
"< 5.70"
>>> result("CCn1ccc2cc(C(=O)N[C@H]3CCc4nc(N5C[C@H](C(F)F)[C@@H](N)C5)ccc4C3)cnc21 [Example 370]")
"5.70 to 6.70"
>>> result("Cc1cnc2c(N)c(C(=O)N[C@@H]3CCc4c(ccc(N5CCNCC5)c4F)C3)sc2n1 (single isomer, unassigned) [Example 21-9]")
"5.70 to 6.70"
>>> result("Cc1cnc2c(N)c(C(=O)N[C@H]3CCc4c(C#N)c(N5CC6CCC(C5)N6)cc(F)c4C3)sc2n1 (single isomer, unassigned) [Example 14-19]")
"6.70 to 7.30"
>>> result("Cc1ccc2c(N)c(C(=O)N[C@@H]3CCc4c(C#N)c(N5CC6CCC(C5)N6)cc(F)c4C3)sc2n1 (single isomer, unassigned) [Example 14-18]")
"< 5.70"
>>> result("Cc1cnc2c(N)c(C(=O)N[C@@H]3CCc4cc(N5CCNCC5)c(F)cc4C3)sc2n1 (single isomer, unassigned) [Example 21-11]")
"< 5.70"
>>> result("Cc1ccc2c(N)c(C(=O)N[C@H]3CCc4nc(N5C[C@H](CF)[C@@H](N)C5)ccc4C3)sc2n1 [Example 384]")
"5.70 to 6.70"
>>> result("Cc1ccc2c(N)c(C(=O)N[C@@H]3CCc4c(C#N)c(N5CCNCC5)cc(F)c4C3)sc2n1 (single isomer, unassigned) [Example 14-9]")
"< 5.70"
>>> result("Cc1ccc2c(N)c(C(=O)N[C@@H]3CCc4nc(N5C[C@H](CF)[C@H](N)C5)ncc4C3)sc2n1 [Example 446]")
"< 5.70"
>>> result("Cc1ccc2c(N)c(C(=O)N[C@H]3COc4cc(N5CCNCC5)ccc4[C@H]3C)sc2n1 (single isomer, unassigned) [Example 11-15]")
"< 5.70"
>>> result("Cc1cnc2c(N)c(C(=O)N[C@H]3CCc4cc(N5C[C@@H]6C[C@H]5CN6)ccc4C3)sc2n1 (single isomer, unassigned) [Example 11-29]")
"5.70 to 6.70"
>>> result("Cc1ccc2c(N)c(C(=O)N[C@H]3CCc4nc(N5CC[C@@]6(C5)OCC[C@H]6N)ccc4C3)sc2n1 [Example 405]")
"5.70 to 6.70"
>>> result("Cc1ccc2c(N)c(C(=O)N[C@H]3CCc4nc(N5C[C@@H](N)[C@H](C(F)(F)F)C5)ccc4C3)sc2n1 [Example 364]")
"< 5.70"
>>> result("Cc1ccc2c(N)c(C(=O)N[C@H]3COc4cc(N5C[C@H](N)[C@@]6(CCOC6)C5)ccc4C3)sc2n1 (single isomer, unassigned) [Example 439]")
"5.70 to 6.70"
>>> result("Cc1nc2sc(C(=O)N[C@@H]3CCc4c(C#N)c(N5CCNCC5)cc(F)c4C3)c(N)c2s1 (single isomer, unassigned) [Example 14-13]")
"< 5.70"
>>> result("Cc1ccc2c(N)c(C(=O)N[C@H]3CCc4nc(N5C[C@H]6COC[C@@H](C5)[C@H]6N)ccc4C3)sc2n1 [Example 396]")
"5.70 to 6.70"
